molecular target: Ku protein (Ku70/Ku80 heterodimer) (Homo sapiens, UniProt P12956;P13010 P12956:2-609,P13010:2-732); assay: EMSA; printed as SCI; details: tags: none, purified from HeLa cell nuclear extracts
Sequence (P12956 2-609, chain 1 of 2): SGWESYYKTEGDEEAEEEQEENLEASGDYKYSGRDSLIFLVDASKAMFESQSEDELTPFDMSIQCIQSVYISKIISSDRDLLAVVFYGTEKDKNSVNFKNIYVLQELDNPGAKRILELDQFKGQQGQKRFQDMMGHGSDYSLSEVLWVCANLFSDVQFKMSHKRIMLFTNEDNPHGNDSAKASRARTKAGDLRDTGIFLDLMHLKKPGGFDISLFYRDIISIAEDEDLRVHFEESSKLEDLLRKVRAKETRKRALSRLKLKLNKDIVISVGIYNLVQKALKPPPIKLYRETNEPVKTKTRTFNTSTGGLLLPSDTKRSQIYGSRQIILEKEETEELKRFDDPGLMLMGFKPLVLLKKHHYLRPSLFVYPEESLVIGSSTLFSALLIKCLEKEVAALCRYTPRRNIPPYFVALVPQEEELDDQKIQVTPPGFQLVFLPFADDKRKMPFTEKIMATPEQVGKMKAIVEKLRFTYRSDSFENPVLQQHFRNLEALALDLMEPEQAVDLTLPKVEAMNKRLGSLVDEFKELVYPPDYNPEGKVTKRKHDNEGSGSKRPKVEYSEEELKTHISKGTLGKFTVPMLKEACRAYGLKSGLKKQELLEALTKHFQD
Sequence (P13010 2-732, chain 2 of 2): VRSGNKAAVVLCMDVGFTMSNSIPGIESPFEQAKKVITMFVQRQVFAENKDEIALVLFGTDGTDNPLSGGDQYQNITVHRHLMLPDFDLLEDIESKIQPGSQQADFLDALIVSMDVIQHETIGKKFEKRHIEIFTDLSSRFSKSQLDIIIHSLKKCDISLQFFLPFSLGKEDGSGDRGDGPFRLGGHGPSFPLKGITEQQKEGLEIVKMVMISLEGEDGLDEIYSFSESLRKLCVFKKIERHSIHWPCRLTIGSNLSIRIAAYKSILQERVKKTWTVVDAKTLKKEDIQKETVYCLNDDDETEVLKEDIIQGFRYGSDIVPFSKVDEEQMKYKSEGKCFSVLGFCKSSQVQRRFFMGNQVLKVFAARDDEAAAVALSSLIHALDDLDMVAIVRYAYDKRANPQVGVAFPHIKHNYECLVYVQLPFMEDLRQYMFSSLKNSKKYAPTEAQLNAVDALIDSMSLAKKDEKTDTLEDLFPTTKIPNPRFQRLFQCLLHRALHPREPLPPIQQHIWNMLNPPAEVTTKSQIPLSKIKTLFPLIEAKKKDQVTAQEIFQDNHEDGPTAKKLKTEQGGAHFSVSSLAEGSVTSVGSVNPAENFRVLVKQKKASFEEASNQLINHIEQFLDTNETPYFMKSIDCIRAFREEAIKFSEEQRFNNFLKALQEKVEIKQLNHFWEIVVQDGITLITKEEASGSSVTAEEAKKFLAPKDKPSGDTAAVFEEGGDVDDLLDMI
measurement type: Kd (nM)
Just the number please, in nM, no unit attached.

Q) Request the reported Kd associated with SC1 (ssRNA) RNA: GGGAGGAUAUUUUCUCAGACCGUAAUUGUUCAACCUUGUCUAACAUGAUACCGAUACGGACUACAUUGCAGCAUCGUGAACUAGGAUC
A) 1.2
